Kd: recorded values
# TEST SYSTEM: T1, recombinant HIS-tagged cyno nectin-4 (Acro Biosystems Cat. No. NE4-C52H4) (cyno, UniProt A0A2K5WES1 32-349)
# T1 construct: Bought protein; HIS tag not described
# T1 sequence: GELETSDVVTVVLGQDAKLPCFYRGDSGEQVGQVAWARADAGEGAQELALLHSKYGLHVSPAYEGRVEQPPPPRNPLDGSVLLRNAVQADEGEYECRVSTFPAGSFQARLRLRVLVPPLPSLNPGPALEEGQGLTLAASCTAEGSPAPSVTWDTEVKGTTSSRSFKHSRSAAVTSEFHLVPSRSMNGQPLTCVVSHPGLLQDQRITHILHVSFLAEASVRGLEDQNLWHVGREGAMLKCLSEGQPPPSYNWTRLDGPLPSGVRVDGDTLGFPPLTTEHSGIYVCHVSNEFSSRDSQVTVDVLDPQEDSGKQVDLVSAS
# PROCEDURE DETAILS: SPR Biacore 8K+, ADC captured via anti-human Fc, nectin-4 analyte, 37 C;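 also: Nectin-4 injected over captured ADC at 0 to 600 nM for 2 min association, then 10 min dissociation, with a reference flow cell lacking ADC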
Please give a number only; it is taken to be in nM.

Solved entries (count: 2):
{"BINDER": "Ab1a ADC (Ab1a conjugated as in Formula XI, DAR of 8) (antibody, human IgG1, kappa, L234A L235A, V domains shown, camptothecin analog linker-payload of Formula XI on cysteine thiols after full reduction, DAR of 8 per antibody; positions not given, Antibody-drug conjugate of Ab1a; also called Ab1a (ADC column)) VH: QVQLVQSGAQVKKPGASVKVSCKASGYTFTGYYIHWVRQAPGQGLEWMGWINPNSGGTNYAQKFQGRVTMTRDTSISTAYMELSRLRSDDTAVYFCAREDWDFDYWGQGTLVTVSS VL: EIVLTQSPGTLSLSPGERATLSCRTSQSVSSSYLAWYQQKPGQAPRLLIYGASNRATDIPDRFSGSGSGTDFTLTINRLEPEDFAVYYCQQYGSSPITFGQGTRLEIKR", "Kd [nM]": 83.9}
{"BINDER": "Ab8 ADC (Ab8 conjugated as in Formula XI, DAR of 8) (antibody, human IgG1, lambda, L234A L235A, V domains shown, camptothecin analog linker-payload of Formula XI on cysteine thiols after full reduction, DAR of 8 per antibody; positions not given, Antibody-drug conjugate of Ab8; also called Ab8 (ADC column)) VH: QVQLVQSGAEVKKPGASVKVSCKASGYTFTSYYIHWVRQAPGQGLEWMGIINPISGRTSSAQKFQGRVTMTRDTSTSTVYMELSSLRSEDTAVYYCAKEGVGGELLRAFDIWGQGTLVTVSS VL: QSVLTQPPSVSEAPRQRVTISCSGSSSNIGNNAVNWYQQLPGKAPKLLIYYDDLLPSGVSDRFSGSKSGTSASLAISGLQSEDEADYYCAAWDDSLNGFVFGGGTKLTVLG", "Kd [nM]": 42.1}

Continue with the next binder.
[Q] Form field: reported Kd of Ab3 ADC (Ab3 conjugated as in Formula XI, DAR of 8) (antibody, human IgG1, kappa, L234A L235A, V domains shown, camptothecin analog linker-payload of Formula XI on cysteine thiols after full reduction, DAR of 8 per antibody; positions not given, Antibody-drug conjugate of Ab3; also called Ab3 (ADC column)) VH: EVQLVESGGGLVKPGGSLRLSCAASGFNLNHYNMNWVRQAPGKGLEWVSSVSSGGGFRYYADSVRGRFTISRDNAKNSLYLQMNSLRAEDTAVYYCARGAVFHDAFDIWGQGTLVTVSS VL: DIQLTQSPSFLSASVGDRVTITCRASQDISSYLAWYQQKPGKAPKLLIYVASTLQSGVPSRFSGSGSGTEFTLTISSLQPEDFATYYCQQINSYPFTFGQGTKVEIKR
[A] 0.986
